system: LNCaP; assay: Concentration required to inhibit proliferation of LNCaP prostate cancer cell lines; type: functional, cell-based; settings: Homo sapiens
property.label: IC50 (µM)
Please give a number only; it is taken to be in µM.

O=c1[nH]cc(F)c(=O)[nH]1 | 4.9

Okay, next one:
Briefly, IC50 measured for CCCCCCCC/C=C/CCCCCCCCNC(=O)[C@@H](N)CO : 6.6
